test method notes: yeast display, Sf9 membrane polyspecificity reagent, FACS + sequencing; frameworks hold sequencing errors
assay metric: polyreactivity (PSR sort gate)

# sequence text, assay metric, experimental value
data = [
    ("QVQLVESGGGLVQAGGSLRLSCAASGFTLVKYVMVWYMQAPGKEREFVATIRRRGGNTYYADSVKGRFTISRDNAKNTVYLQMNSLKPEDTAVYYCAAKKRSDLRTGDMEYWGQGTQVTVSS", "polyreactivity (PSR sort gate)", "high polyreactivity"),
    ("QVQLVESGGGLVQAGGSLRLSCAASGSIFSRYAMGWYRQAPAKERELVAASSSRGGSTYYADSVKGRFTISRDNAKNTVYLQMNSLKTEDTAVYYCAAQAPDTPSLDEGDFWGQGTQVTVSS", "polyreactivity (PSR sort gate)", "high polyreactivity"),
]

* * *

test method notes: yeast display, Sf9 membrane polyspecificity reagent, FACS + sequencing; frameworks hold sequencing errors
assay metric: polyreactivity (PSR sort gate)

Example results:
# sequence text, polyreactivity (PSR sort gate)
rows = [
    ("QVQLVDSRGGLVQAGGSLRLSCAASGNTFGFNAMGWNRQARGKERHLVAAITWSVGRTYYADSVKRRFTISRDHAKNTVYLEMNSLKPEDTAVYYCAKDFEAGDDYFAYDYWGQGTQVTVSS", "low polyreactivity"),
    ("QVQLEESGGGLVQAGGSLRLSCAASGSIFLGNAMGWYRQAPGKERDLVAAISGGDSTNYADAVKGRFTISRDNAKNTGYLEMNCLKPEDTAVYYCNAVRTLYIWWPGYYYCGQGTQVTVSS", "low polyreactivity"),
    ("QVQLVESGGGLVQAGGSLRLSCAASGIIFRYYARVWYRQAPGKEREFVAAINYSGGSTYYADSVKGRFTISRDTAKYSVYLQMNSLKPEDTAVYYCAARSYTYTAPIYGYWGQGTQVTVSS", "high polyreactivity"),
    ("QVQLVESGGGLVQAGGSLRLSCAASGRTFGHYAMGWYRQAPGKERELVAAITYSGGSTYADSVKGRFTISRDNAKNTVYLQMNSLKPEDTAVYYCNKRQKGYTRSYRYIVWYDYWGQGTQVTVSS", "high polyreactivity"),
    ("QVQIVESGGGLVQAGGSLRLSCAASGFTCRGNAMGWYRQAPGKERELVATISYNAGSTYYADAVKGRFTISRDNAKNTVYFQMNSLNPEDTAVYYCAVELDSEPDYEPWTEYDYWGQGTQVTVSS", "low polyreactivity"),
    ("QVQLVESGGGLVQAGGSLRLSCAASGRTFKYYTMGWYRQAPGKERELVAVIRGTGSTYYADSVKGRFTISRDNAKNTVYLQMNSLKPEDTAVYYCAVQVRRRYNYWGQGTQVTVSS", "high polyreactivity"),
    ("QVQLVESGGGLVQAGGSLRLSCAASGRIFIYYARGWYRQAPGKERELVAAISGGGGRTYYADSVKGRFTISRDNAKNTVYLQMNSLKPEDTAVYYCAAGVYTGQDEYDYWGQGTQVTVSS", "low polyreactivity"),
    ("QVQLVESGGGLVQAGGSLRLSCAASGFTFVPYAMGWYRPAPGKEREFVAAITSSGTTNYADSVKGRFTISRDNAKNTVYLQMNSLKPEDTAVYYCAADPDSGQVPFDYWGQGTQVTVSS", "low polyreactivity"),
    ("QVQLVESGGGLVQAGGSLRLSCAASGRTFYVYDMGWYRQAPGKERELVAVISSSGSTNYADSVKGRFTISRDNAKNTVYLQMNSLKPEDTAVYYCNRRRWYFFSLDYWGQGTQVTVSS", "high polyreactivity"),
    ("QVQLVESGGGLVQAGGSLRLSCAASGSTYWINAMGWYRQAPGKEREFVAAIRWNGGSTNYADSVKGRFTISRDNAKNTVYLQMNSLKPEDTAVYYCAADGYIGWRHIYEYWGQGTQVTVSS", "low polyreactivity"),
]

If you can, please state the reported polyreactivity (PSR sort gate) value of `QFQLVESGGGLVQAGGSLRLSCAASGRIFDLNAMGWYRQAPGKERELVAAITWSGDSTYYADSVKGRITISRDNAKNTVYLQLNSLKPEDTAVYYCAAASRTSYSWVDYEFDYWGQGTQVTVSS` .
low polyreactivity

Now the same for `QVQLVESGGGLVQAGGSLRLSCAASGSIFRGYAMGWYRQAPGTERELVAAITSSAGSTYYADSVKGRFTISRDNAKNTVYLQMNSLKPEDSAVYYCNKYPRASRRGFDYWGQGTQVTVSS`
high polyreactivity

Now the same for `QVQLVESGGGLVQAGGSLRLSCAASGSTLTRNAMGWYRQAPGKERELVAAITTSGGRTYYADSVKGRFTISRDNAKNTVYLQMNSLKPEDTAVYYCAARQRSEYVSGSLFYYWGQGTQVTVSS`
high polyreactivity

Now the same for `QVQLVESGGGLVQAGGSLRLSCAASGRIFQGYVMGWYRQAPGKERELVAAITTGGSTYYADSVKGRFTISRDNAKNTVYLQMNSLKPEDTAVYYCAAKPTRSRKIYEYWGQGTQVTVSS`
low polyreactivity

Now the same for `QVQLQDSGGGLVQAGGSLRLSCAASGTISDRAGMGWYRQAPAQNAIVATIDRGTNTNYADSVKGRFTISRDNAKNTVYLQMNSLKPEDTAVYNCAADGRYYIYLDYWGQGTQVTVSS`
low polyreactivity

Now the same for `QVQLVESGGGLVQAGGSLRLSCAASGNTFAHYVMGWYRQAPGKERELVASITSGGSTNYADSVKGRFTISRDNAKNTVYLQMNSLKPEDTAVYYCAVSLSYWYEAFTTRIDYYYWGQGTQVTVSS`
high polyreactivity

Now the same for `QVQLVESGGGLVQAGGSLRLSCAASGFIYARYAMGWYRQAPGKERELVAGISGGGGRTYYADSVKGRFTISRDNAKNTVYLQMNSLKPEDTAVYYCAATPQSRDRRFNYWGQGTQVTVSS`
high polyreactivity

Now the same for `QVQLVESGGGLVQAGGSLRLSCAASGNTFAYNVMGWYRQAPGKERELVAAISRSGGSTYYADSVKGRFTISRDNAKNTVYLQMNSLKPEDTAVYYCAAVVRRVRPEGSYNRWGHDYWGQGTQVTVSS`
high polyreactivity

Now the same for `QVQLVESGGGLVQAGGSLRLSCAPSGIIAKHNAMGWYRQAPGKERELVAAITSGSITNYADSVKGRFTISRDNAKNTLYLQMNSLKPEDTAVYYCAKRVDAYGWWGRRSGVLSDYWGQGTQVTVSS`
low polyreactivity

Now the same for `QVQLVESGGGLVQAGGSLRLSCAASGLTIYHYSMGCYRQAPGKERELGAAISGNGVSTYYADSVKGRFTISRDNAKNTVYLQMNSLNPEDTAVYYCNVVFRFNSFDFYYWGLGTQVTVSS`
high polyreactivity

Now the same for `QVQLVESGGGLVQAGGSLRLSCDASGLTFSWYAMGWSRQAPGKERELVAAISRSGGSTYYADSVKGRFSISRDKAKNTVYLQMNSLKPEDTGVYYCAAETDIAPDYDYWGQGTQVTVSS`
low polyreactivity

This collection of values is drawn from the nanobody polyreactivity screen of Harvey et al. (2022).
